assay: clinical; details: both, human, in vivo, Cmax, Median

- test_smiles: "CN(C)CCc1c[nH]c2ccc(C[C@H]3COC(=O)N3)cc12"
  unit_annotation: "ng/mL"
  Cmax: 3.7

---

assay: clinical; conditions: both, human, in vivo, Tmax, Mean

- test_smiles: "CN(C)CCc1c[nH]c2ccc(C[C@H]3COC(=O)N3)cc12"
  unit_annotation: "h"
  Tmax: 1.79

---

assay: clinical; conditions: both, human, in vivo, sc, t1/2 Mean (SD)

- test_smiles: "CNS(=O)(=O)Cc1ccc2[nH]cc(CCN(C)C)c2c1"
  half-life, h: 1.14

---

experiment: Solubility of zolmitriptan in various acids; format: physicochemical; settings: 5 °C, aqueous buffer, thermodynamic from solid; 0.1 M succinic acid, 2-8° C.

- test_smiles: "CN(C)CCc1c[nH]c2ccc(C[C@H]3COC(=O)N3)cc12"
  unit_annotation: "mg/mL"
  solubility: 59.1

---

experiment: clinical; conditions: both, human, in vivo, Tmax Med (Range)
The following compounds are shown together with reported Tmax values.

- compound: "CNS(=O)(=O)Cc1ccc2[nH]cc(CCN(C)C)c2c1 [Sumatriptan, sumatriptan]"
  unit_annotation: "min"
  Tmax: 10
- compound: "CN(C)CCc1c[nH]c2ccc(C[C@H]3COC(=O)N3)cc12 [Zolmitriptan 2.5 mg Oral Tablet, zolmitriptan]"
  unit_annotation: "min"
  Tmax: 60

---

test: clinical; conditions: both, human, in vivo

- test_smiles: "CN(C)CCc1c[nH]c2ccc(C[C@H]3COC(=O)N3)cc12"
  AUC0-last / Dose, ng·h/mL/mg: 8.6

---

target: recombinant human 5-HT1B receptors (Homo sapiens, UniProt P28222); experiment: Ligand-receptor binding kinetics, 3H-5-carboxamidotryptamine competition, CHO-K1 membranes
Sequence (P28222 whole entry): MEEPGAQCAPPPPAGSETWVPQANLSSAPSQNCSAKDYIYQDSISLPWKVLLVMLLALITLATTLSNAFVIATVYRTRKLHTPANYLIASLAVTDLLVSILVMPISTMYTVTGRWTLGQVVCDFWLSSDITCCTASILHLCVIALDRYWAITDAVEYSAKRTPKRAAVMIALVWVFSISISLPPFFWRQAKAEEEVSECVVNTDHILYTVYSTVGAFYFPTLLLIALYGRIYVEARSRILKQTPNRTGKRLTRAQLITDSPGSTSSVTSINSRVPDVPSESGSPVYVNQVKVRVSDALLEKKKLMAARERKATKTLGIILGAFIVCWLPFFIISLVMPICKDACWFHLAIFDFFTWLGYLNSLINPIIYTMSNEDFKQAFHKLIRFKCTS
The following compounds are shown together with reported Kd values.

- compound: "CNCCc1c[nH]c2ccc(C[C@H]3COC(=O)N3)cc12 [N-desmethyl zolmitriptan]"
  target_system: "recombinant human 5-HT1B receptors (Homo sapiens, UniProt P28222)"
  unit_annotation: "nM"
  Kd: 0.92
- compound: "CN(C)CCc1c[nH]c2ccc(C[C@H]3COC(=O)N3)cc12 [Zolmitriptan, zolmitriptan]"
  target_system: "recombinant human 5-HT1B receptors (Homo sapiens, UniProt P28222)"
  unit_annotation: "nM"
  Kd: 1.47

---

assay: clinical; conditions: both, human, in vivo, AUCt, Median

- molecule: "CN(C)CCc1c[nH]c2ccc(C[C@H]3COC(=O)N3)cc12 [Zolmitriptan 2.5 mg Oral Tablet, zolmitriptan]"
  AUC(0-t), µg·h/mL: 0.0226

---

Experiment: clinical
Conditions: both, human, in vivo, AUC2 hrs, Mean
Procedure: The final treatment administered was 3.8 mg on a 10 cm^2 patch using an applicator with 0.52 Joule of application energy in the intracutaneous microneedle system described herein. The products tested were: This was a single-center, open-label, randomized five-way crossover study (Part 1) followed by a sequential study of two additional treatments (Parts 2 and 3). […] After completion of the seven dosing days, subjects were assessed one final time and dismissed from the study. […]
The following compounds are shown together with reported AUC(0-t) values.
measured_endpoint: AUC(0-t) (ng·h/mL)

- test_smiles: "CNS(=O)(=O)Cc1ccc2[nH]cc(CCN(C)C)c2c1"
  measured_endpoint: "AUC(0-t)"
  experimental_result: 70.9
- test_smiles: "CN(C)CCc1c[nH]c2ccc(C[C@H]3COC(=O)N3)cc12"
  measured_endpoint: "AUC(0-t)"
  experimental_result: 4.72

---

test: clinical; settings: both, human, in vivo, Tmax

- test_smiles: "CN(C)CCc1c[nH]c2ccc(C[C@H]3COC(=O)N3)cc12"
  Tmax [h]: 1.8

---

Experiment: Solubility of zolmitriptan in various acids
Format: physicochemical
Conditions: 5 °C, aqueous buffer, thermodynamic from solid; 0.1 M maleic acid, 2-8° C.
From the text: The suspension was then centrifuged.

- test_smiles: "CN(C)CCc1c[nH]c2ccc(C[C@H]3COC(=O)N3)cc12"
  solubility: "50.5 mg/mL"

---

molecular target: recombinant human 5-HT1D receptors (Homo sapiens, UniProt P28221); construct: expressed in transfected cells; host or cells: CHO-K1; test: Ligand-receptor binding kinetics, 3H-5-carboxamidotryptamine competition, CHO-K1 membranes
Sequence (P28221 whole entry): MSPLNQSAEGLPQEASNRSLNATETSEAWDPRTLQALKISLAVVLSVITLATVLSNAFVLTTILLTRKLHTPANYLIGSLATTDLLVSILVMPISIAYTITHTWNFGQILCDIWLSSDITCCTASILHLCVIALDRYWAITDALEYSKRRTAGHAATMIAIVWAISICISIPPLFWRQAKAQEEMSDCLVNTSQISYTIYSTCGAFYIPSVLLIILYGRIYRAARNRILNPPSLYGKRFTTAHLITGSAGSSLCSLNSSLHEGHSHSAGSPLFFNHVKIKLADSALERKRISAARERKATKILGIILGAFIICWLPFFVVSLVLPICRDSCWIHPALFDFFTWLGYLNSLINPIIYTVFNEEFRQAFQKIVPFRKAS
pKd: −log10 of the molar value.
The following molecules are shown together with reported pKd values.
measured_endpoint: pKd

- molecule: "CN(C)CCc1c[nH]c2ccc(C[C@H]3COC(=O)N3)cc12 [Zolmitriptan, zolmitriptan]"
  experimental_result: 9.47
- molecule: "CNCCc1c[nH]c2ccc(C[C@H]3COC(=O)N3)cc12 [N-desmethyl zolmitriptan]"
  experimental_result: 9.37

---

test: Solubility of zolmitriptan in various acids; type: physicochemical; conditions: 5 °C, simulated gastric fluid, thermodynamic from solid; 0.1 M HCl, 2-8° C.
measured_endpoint: solubility (mg/mL)

- test_smiles: "CN(C)CCc1c[nH]c2ccc(C[C@H]3COC(=O)N3)cc12"
  measured_endpoint: "solubility"
  experimental_result: 33.3

---

experiment: clinical; details: both, human, in vivo, AUC0-last
measured_endpoint: AUC(0-t) (ng·h/mL)

- molecule: "CN(C)CCc1c[nH]c2ccc(C[C@H]3COC(=O)N3)cc12 [Zolmitriptan 2.5 mg Oral Tablet, zolmitriptan]"
  experimental_result: 22.2

---

assay: clinical; details: both, human, in vivo, 2.5 mg, tmax Median (Range)

- test_smiles: "CN(C)CCc1c[nH]c2ccc(C[C@H]3COC(=O)N3)cc12"
  Tmax [h]: 1

---

The following compounds are shown together with reported AUC(0-t) values.
assay: clinical; conditions: both, human, in vivo, AUC0-2 hr (SD)
measured_endpoint: AUC(0-t) (ng·h/mL)

- test_smiles: "CN(C)CCc1c[nH]c2ccc(C[C@H]3COC(=O)N3)cc12"
  experimental_result: 4.7
- test_smiles: "CNS(=O)(=O)Cc1ccc2[nH]cc(CCN(C)C)c2c1"
  experimental_result: 70.9

---

experiment: clinical; conditions: both, human, in vivo, Cmax

- test_smiles: "CN(C)CCc1c[nH]c2ccc(C[C@H]3COC(=O)N3)cc12"
  unit_annotation: "ng/mL"
  Cmax: 3.8

---

assay: clinical; settings: both, human, in vivo, 2.5 mg, AUCinf Mean (SD)
measured_endpoint: AUC(0-inf) (ng·h/mL)

- test_smiles: "CN(C)CCc1c[nH]c2ccc(C[C@H]3COC(=O)N3)cc12"
  experimental_result: 27.2

---

The following compounds are shown together with reported AUC(0-inf) values.
assay: clinical; details: both, human, in vivo, AUCinf, Mean

- test_smiles: "CN(C)CCc1c[nH]c2ccc(C[C@H]3COC(=O)N3)cc12"
  unit_annotation: "ng·h/mL"
  AUC(0-inf): 27.2
- test_smiles: "CNS(=O)(=O)Cc1ccc2[nH]cc(CCN(C)C)c2c1"
  unit_annotation: "ng·h/mL"
  AUC(0-inf): 105

---

test: clinical; conditions: both, human, in vivo, sc, tmax Median (Range)
measured_endpoint: Tmax (min)

- test_smiles: "CNS(=O)(=O)Cc1ccc2[nH]cc(CCN(C)C)c2c1"
  measured_endpoint: "Tmax"
  experimental_result: 10

---

experiment: clinical; conditions: both, human, in vivo, 2.5 mg, Cmax Mean (SD)
measured_endpoint: Cmax (ng/mL)

- test_smiles: "CN(C)CCc1c[nH]c2ccc(C[C@H]3COC(=O)N3)cc12"
  measured_endpoint: "Cmax"
  unit_annotation: "ng/mL"
  experimental_result: 3.77

---

assay: clinical; conditions: both, human, in vivo, 2.5 mg, AUC2 hrs Mean (SD)

- test_smiles: "CN(C)CCc1c[nH]c2ccc(C[C@H]3COC(=O)N3)cc12"
  unit_annotation: "ng·h/mL"
  AUC(0-t): 4.72

---

Assay: clinical
Settings: both, human, in vivo, t1/2, Mean
Experimental: The final treatment administered was 3.8 mg on a 10 cm^2 patch using an applicator with 0.52 Joule of application energy in the intracutaneous microneedle system described herein. The products tested were: This was a single-center, open-label, randomized five-way crossover study (Part 1) followed by a sequential study of two additional treatments (Parts 2 and 3). […] After completion of the seven dosing days, subjects were assessed one final time and dismissed from the study. […]
measured_endpoint: half-life (h)

- compound: "CN(C)CCc1c[nH]c2ccc(C[C@H]3COC(=O)N3)cc12 [Zolmitriptan 2.5 mg Oral Tablet, zolmitriptan]"
  experimental_result: 3.27
- compound: "CNS(=O)(=O)Cc1ccc2[nH]cc(CCN(C)C)c2c1 [Sumatriptan, sumatriptan]"
  experimental_result: 1.14

---

experiment: clinical; settings: both, human, in vivo, AUCt, Mean

- test_smiles: "CN(C)CCc1c[nH]c2ccc(C[C@H]3COC(=O)N3)cc12"
  AUC(0-t), ng·h/mL: 22.2

---

assay: clinical; details: both, human, in vivo, Cmax (SD)

- molecule: "CNS(=O)(=O)Cc1ccc2[nH]cc(CCN(C)C)c2c1 [Sumatriptan, sumatriptan]"
  Cmax (ng/mL): 88.8
- molecule: "CN(C)CCc1c[nH]c2ccc(C[C@H]3COC(=O)N3)cc12 [Zolmitriptan 2.5 mg Oral Tablet, zolmitriptan]"
  Cmax (ng/mL): 3.8
